Measured pIC50 values are reported for all entries that follow.
biological target: human SLC6A19 and TMEM27 (Homo sapiens, UniProt Q695T7); construct: expressed in transfected cells; assay: Radiolabelled (3H) leucine uptake in CHO cells with doxycycline-inducible expression of human SLC6A19 and TMEM27 (Example B-1); assay type: cell-based; conditions: CHO cells with doxycycline-inducible expression of human SLC6A19 and TMEM27, read-out: SLC6A19_Radioligand Uptake Assay IC50
Hey, just a heads up that pIC50 is the negative log base 10 of the concentration in molar.

Solved entries:
Cc1cnc(COc2cc3[nH]c(CNC(=O)C4(C)CC4)cc3cc2F)o1 [Compound 73] = 5.83
CC1(C(=O)NCc2cc3cc(CC(F)(F)F)c(OCc4ccon4)cc3[nH]2)CC1 [Compound 649] = 6.49
CC1(C(=O)NCc2cc3cc(C4CC4)c(OCc4ccon4)cc3[nH]2)CC1 [Compound 342] = 6.59
Cc1cc(COc2cc3[nH]c(CNC(=O)CC4CCCO4)cc3cc2Cl)on1 (stereo not drawn) [Compound 310] = 5.60
Cc1cc(COc2cc3[nH]c(CNC(=O)[C@@H]4CCCO4)cc3cc2Cl)on1 [Compound 312] = 6.50
CC(=O)NCc1cc2cc(Cl)c(OCCOC(F)(F)F)cc2[nH]1 [Compound 338] = 6.80

Input line: Quick one: give measured pIC50 for Cc1cc(COc2cc3[nH]c(CNC(=O)COC(F)F)cc3cc2Cl)on1 [Compound 294]
Output line: 6.87

Input line: Quick one: give measured pIC50 for CC1(C(=O)NCc2cc3cc(Cl)c(OCc4ccco4)cc3[nH]2)CC1 [Compound 66]
Output line: 7.15

Input line: Quick one: give measured pIC50 for CC1(C(=O)NCc2cc3ccc(OCc4ccon4)c(F)c3[nH]2)CC1 [Compound 201]
Output line: 5.29

###

target: human SLC6A19 and TMEM27 (Homo sapiens); construct: expressed in transfected cells; assay: Radiolabelled (3H) leucine uptake in CHO cells with doxycycline-inducible expression of human SLC6A19 and TMEM27 (Example B-1); type: cell-based; conditions: CHO cells with doxycycline-inducible expression of human SLC6A19 and TMEM27, read-out: SLC6A19_Radioligand Uptake Assay IC50
Measured pIC50 values are reported for all entries that follow.
Hey, just a heads up that pIC50 is the negative log base 10 of the concentration in molar.

Solved entries:
CC1(C(=O)NCc2cc3cc(F)c(OCc4cscn4)cc3[nH]2)CCC1 [Compound 507] = 6.49
Cc1cc(COc2cc3[nH]c(CNC(=O)CC(F)F)cc3cc2Cl)on1 [Compound 519] = 6.93
Cc1cc(COc2cc3[nH]c(CNC(=O)N4CCC45COC5)cc3cc2Cl)on1 [Compound 378] = 5.26

# ---- query compound ----
Input line: # return pIC50 for Cc1cc(COc2cc3[nH]c(CNC(=O)C4CCO4)cc3cc2Cl)on1 (centres unmarked) [Compound 278] , test system: human SLC6A19 and TMEM27 (Homo sapiens)
Output line: 6.97

###

target: human SLC6A19 and TMEM27 (Homo sapiens); construct: expressed in transfected cells; test: Radiolabelled (3H) leucine uptake in CHO cells with doxycycline-inducible expression of human SLC6A19 and TMEM27 (Example B-1); type: cell-based; details: CHO cells with doxycycline-inducible expression of human SLC6A19 and TMEM27, read-out: SLC6A19_Radioligand Uptake Assay IC50
Field: label. Allowed values: True (IC50 < 600 nM) or False (IC50 >= 600 nM).

// known answers, use as guide
CC1(C(=O)NCc2cc3cc(Cl)c(OCCOC4CC4)cc3[nH]2)CC1 = True
Cc1cc(COc2cc3[nH]c(CNC(=O)N4CCC4)cc3cc2F)on1 = True
COCC(=O)NCc1cc2cc(Cl)c(OCc3cc(C)no3)cc2[nH]1 = True
CCOCCOc1cc2[nH]c(CNC(C)=O)cc2cc1Cl = True
[2H]C([2H])([2H])C(=O)NCc1cc2cc(Cl)c(OCc3cscn3)cc2[nH]1 = True

Input line: Determine if O=C(NCc1cc2cc(Cl)c(NCc3ccon3)cc2[nH]1)N1CCC1 shows IC50 strictly lower than 600 nM.
Output line: False

Input line: Determine if Cc1cc(COc2cc3[nH]c(CNC(=O)[C@@]4(C)CCCO4)cc3cc2Cl)on1 shows IC50 strictly lower than 600 nM.
Output line: True

Input line: Determine if COCCOc1cc2[nH]c(CNC(=O)C3(C)CC3)cc2cc1Cl shows IC50 strictly lower than 600 nM.
Output line: True

Input line: Determine if CC1(C(=O)NCc2cc3cc(Cl)c(CCn4ccnc4)cc3[nH]2)CC1 shows IC50 strictly lower than 600 nM.
Output line: False

###

molecular target: human SLC6A19 and TMEM27 (Homo sapiens, UniProt Q695T7); construct: expressed in transfected cells; assay: 13C6,15N-isoleucine uptake in CHO cells with doxycycline-inducible expression of human SLC6A19 and TMEM27, RapidFire mass spectrometry (Example B-2); type: cell-based; conditions: read-out: SLC6A19_RapidFire Uptake Assay IC50
Field: label. Allowed values: met (IC50 < 300 nM) or not met (IC50 >= 300 nM).

CC1(C(=O)NCc2cc3cc(Cl)c(OCc4ccc5ccoc5c4)cc3[nH]2)CC1 [Compound 461] = not met

Input line: Determine if Cc1coc(COc2cc3[nH]c(CNC(=O)N4CCCC4)cc3cc2Cl)n1 [Compound 426] shows IC50 strictly lower than 300 nM.
Output line: met

Input line: Determine if CC1(C(=O)NCc2cc3cc(F)c(OCc4cscn4)cc3[nH]2)CC1 [Compound 8] shows IC50 strictly lower than 300 nM.
Output line: met

Input line: Determine if CC1(C(=O)NCc2cc3ccc(OCc4cscn4)cc3[nH]2)CC1 [Compound 164] shows IC50 strictly lower than 300 nM.
Output line: met

###

Target: human SLC6A19 and TMEM27 (Homo sapiens, UniProt Q695T7)
Construct: expressed in transfected cells
Sequence (Q695T7 1-634): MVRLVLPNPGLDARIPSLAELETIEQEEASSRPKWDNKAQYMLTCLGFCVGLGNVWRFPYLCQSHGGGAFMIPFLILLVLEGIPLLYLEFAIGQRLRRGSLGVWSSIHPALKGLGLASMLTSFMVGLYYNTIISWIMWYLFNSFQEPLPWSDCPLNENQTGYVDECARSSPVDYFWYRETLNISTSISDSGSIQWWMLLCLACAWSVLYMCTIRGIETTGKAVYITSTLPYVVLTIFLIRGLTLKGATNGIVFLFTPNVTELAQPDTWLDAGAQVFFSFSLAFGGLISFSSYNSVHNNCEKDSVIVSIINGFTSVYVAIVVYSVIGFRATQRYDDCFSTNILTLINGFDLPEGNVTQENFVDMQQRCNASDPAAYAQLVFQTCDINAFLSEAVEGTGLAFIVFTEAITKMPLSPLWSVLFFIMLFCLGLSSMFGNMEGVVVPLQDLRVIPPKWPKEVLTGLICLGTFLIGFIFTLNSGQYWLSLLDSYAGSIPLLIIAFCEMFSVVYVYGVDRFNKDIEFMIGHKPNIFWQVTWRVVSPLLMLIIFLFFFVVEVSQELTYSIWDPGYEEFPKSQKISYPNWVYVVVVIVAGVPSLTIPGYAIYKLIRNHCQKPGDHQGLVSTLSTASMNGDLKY
Sequence (Q9HBJ8 15-222 partner): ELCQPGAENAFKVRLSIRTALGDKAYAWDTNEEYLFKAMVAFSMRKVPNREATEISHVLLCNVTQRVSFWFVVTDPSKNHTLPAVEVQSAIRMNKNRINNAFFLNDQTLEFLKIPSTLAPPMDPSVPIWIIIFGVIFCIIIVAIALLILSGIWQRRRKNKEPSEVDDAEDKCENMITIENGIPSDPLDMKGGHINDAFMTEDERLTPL
Assay: Radiolabelled (3H) leucine uptake in CHO cells with doxycycline-inducible expression of human SLC6A19 and TMEM27 (Example B-1)
Type: cell-based
Details: CHO cells with doxycycline-inducible expression of human SLC6A19 and TMEM27, read-out: SLC6A19_Radioligand Uptake Assay IC50
Field: label. Allowed values: Y (IC50 < 200 nM) or N (IC50 >= 200 nM).

// known answers, use as guide
CC1(C(=O)NCc2cc3ccc(OCc4cc(C(F)(F)F)on4)cc3[nH]2)CC1 [Compound 354] = N
CC1(C(=O)NCc2cc3cc(Cl)c(OCc4ccoc4)cc3[nH]2)CC1 [Compound 64] = Y
COC(=O)NCc1cc2cc(F)c(OCc3cscn3)cc2[nH]1 [Compound 622] = Y

# ---- query compound ----
Input line: Determine if O=C(NCc1cc2c(F)cc(OCc3cscn3)cc2[nH]1)N1CCC1 [Compound 422] shows IC50 strictly lower than 200 nM.
Output line: N

###

target: human SLC6A19 and TMEM27 (Homo sapiens); construct: expressed in transfected cells; assay: 13C6,15N-isoleucine uptake in CHO cells with doxycycline-inducible expression of human SLC6A19 and TMEM27, RapidFire mass spectrometry (Example B-2); format: cell-based; settings: read-out: SLC6A19_RapidFire Uptake Assay IC50
Field: label. Allowed values: Criterion met (IC50 < 200 nM) or Criterion not met (IC50 >= 200 nM).

// known answers, use as guide
CC(=O)NCc1cc2cc(C)c(OCc3cscn3)cc2[nH]1 = Criterion not met
CC1(C(=O)NCc2cc3ccc(OCc4csnn4)cc3[nH]2)CC1 = Criterion met
O=C(NCc1cc2cc(OC(F)(F)F)c(OCc3cscn3)cc2[nH]1)N1CCCC1 = Criterion met
Cc1cnc(COc2cc3[nH]c(CNC(=O)C4(C)CC4)cc3cc2Cl)s1 = Criterion met

Input line: Determine if Cn1cc(COc2ccc3cc(CNC(=O)C4(C)CC4)[nH]c3c2)nn1 shows IC50 strictly lower than 200 nM.
Output line: Criterion not met

Input line: Determine if Cc1nc(COc2cc3[nH]c(CNC(=O)C(C)C)cc3cc2F)co1 shows IC50 strictly lower than 200 nM.
Output line: Criterion not met

Input line: Determine if Cc1nc(COc2cc3[nH]c(CNC(=O)N4CCCC4)cc3cc2Cl)co1 shows IC50 strictly lower than 200 nM.
Output line: Criterion not met

Input line: Determine if CC(=O)NCc1cc2cc(Cl)c(OCc3ccno3)cc2[nH]1 shows IC50 strictly lower than 200 nM.
Output line: Criterion met

Input line: Determine if CCC(=O)NCc1cc2cc(Cl)c(OCc3ccon3)cc2[nH]1 shows IC50 strictly lower than 200 nM.
Output line: Criterion met
